# Tested On: MAP2K1 (Homo sapiens, UniProt Q02750)
# Construct: purchased in-house thermal shift (DSF) kinase panel (SGC Frankfurt); Promega NanoBRET for AURKA/B/C
# Sequence (Q02750 68-361): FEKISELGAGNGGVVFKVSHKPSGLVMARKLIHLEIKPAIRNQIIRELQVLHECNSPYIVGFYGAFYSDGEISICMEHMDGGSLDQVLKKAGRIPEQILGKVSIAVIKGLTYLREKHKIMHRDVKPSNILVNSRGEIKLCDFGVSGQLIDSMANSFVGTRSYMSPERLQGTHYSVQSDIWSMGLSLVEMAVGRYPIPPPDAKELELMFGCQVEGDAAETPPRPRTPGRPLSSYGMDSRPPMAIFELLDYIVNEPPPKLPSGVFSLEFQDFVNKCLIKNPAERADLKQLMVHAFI
# Protocol Text: Thermal shift assay
# Type: binding
# Condition Set: compound 10 µM; n = 3; read-out: ΔTm MAP2K1
Readout: ΔTm at 10 µM (°C)
Respond with the bare value in °C.

Example entries and their recorded answers appear below.
- O=C(Cc1ccc(Nc2ncc(F)c(Nc3ccc(C(=O)Nc4ccccc4Cl)cc3)n2)cc1)NCCN1CCOCC1: 0
- CCN1CCN(C(=O)Cc2ccc(Nc3ncc(F)c(Nc4ccc(C(=O)O)cc4)n3)cc2)CC1: -0.1
- CCN1CCN(C(=O)Cc2ccc(Nc3ncc(F)c(Nc4ccc(C(=O)Nc5ccccc5)cc4)n3)cc2)CC1: 0

Let us examine a further case.
Problem: # ΔTm at 10 µM lookup, item NC(=O)Cc1ccc(Nc2ncc(F)c(Nc3ccc(C(=O)Nc4ccccc4Cl)cc3)n2)cc1
Result: 0
